The reported measurements were obtained from patent US12528816B2.

I'd be grateful if you could share measured pIC50 for these entries.
Target: human CaMKIIδ (Homo sapiens, UniProt Q13557)
Construct: Full-length, glutathione-S-transferase(GST)-tagged, human CaMKIIδ was purchased from Carna Biosciences; purchased Carna Biosciences (CaMKIIδ); Wako Pure Chemical Industries (calmodulin) 02-111
Experiment: Evaluation of in vitro CaMKII inhibitory activity (binding assay, TR-FRET)
Conditions: human CaMKIIδ, TR-FRET binding assay; class symbols A/B/C; read-out: Act (CaMKII inhibitory activity, binding assay)
pIC50: −log10 of the molar value.

Query block: Can you share its pIC50? I mean this compound: C[C@@H](Cn1cnnn1)Oc1cccc(-c2ccc3ncn(-c4cc(F)cc(O)c4C#N)c3n2)n1 [Example 472]
Result block: > 8.00

Query block: Can you share its pIC50? I mean this compound: C[C@@H](Cn1cnnn1)Oc1cc(-c2ccc3ncn(-c4cccc(C(=O)N(C)C)c4C#N)c3n2)ccc1F [compound 228]
Result block: < 7.00

Query block: Can you share its pIC50? I mean this compound: C[C@@H](Cn1cnnn1)Oc1cccc(-c2ccn3ncc(-c4cccc(C(=O)NCC5CC5)c4)c3n2)c1 [compound 63]
Result block: > 8.00

Query block: Can you share its pIC50? I mean this compound: C[C@@H](Cn1cnnn1)Oc1cc(-c2ccn3ncc(-c4cccc(CN(C)C)c4)c3n2)ccc1F [compound 40]
Result block: > 8.00

Query block: Can you share its pIC50? I mean this compound: C[C@@H](Cn1cnnn1)Oc1cccc(-c2ccn3ncc(-c4cccc(C(=O)NCc5ccccn5)c4)c3n2)c1 [compound 92]
Result block: > 8.00

Query block: Can you share its pIC50? I mean this compound: C[C@@H](Cn1cnnn1)Oc1cccc(-c2ccn3ncc(-c4cccc(C(=O)NCCn5cncn5)c4)c3n2)c1 [compound 96]
Result block: > 8.00

Query block: Can you share its pIC50? I mean this compound: C[C@@H](Cn1cnnn1)Oc1cc(-c2ccc3ncc(-c4cccc(OCCC5CCNCC5)c4C#N)n3n2)ccc1F [compound 208]
Result block: > 8.00

Query block: Can you share its pIC50? I mean this compound: C[C@@H](Cn1cnnn1)Oc1cc(-c2ccc3ncc(-c4cccc(OCC(=O)O)c4C#N)n3n2)ccc1F [compound 216]
Result block: > 8.00

Query block: Can you share its pIC50? I mean this compound: C[C@@H](Cn1cnnn1)Oc1cccc(-c2ccn3ncc(-c4cccc(C(=O)NCCC5CCN(C)CC5)c4)c3n2)c1 [compound 76]
Result block: > 8.00

Query block: Can you share its pIC50? I mean this compound: COc1ccnc(-c2cnn3ccc(-c4ccc(F)c(O[C@@H](C)Cn5cnnn5)c4)nc23)c1 [compound 140]
Result block: 7.00 to 8.00

Query block: Can you share its pIC50? I mean this compound: C[C@@H](Cn1cnnn1)Oc1cccc(-c2ccn3ncc(-c4cccc(C(=O)NC5CCN(C)C(=O)C5)c4)c3n2)c1 (stereo partly drawn) [compound 112]
Result block: > 8.00

Query block: Can you share its pIC50? I mean this compound: COCCC(=O)Nc1cccc(-c2cnc3ccc(-c4ccc(F)c(O[C@@H](C)Cn5cnnn5)c4)nn23)c1C#N [compound 182]
Result block: > 8.00

Query block: Can you share its pIC50? I mean this compound: C[C@@H](Cn1cnnn1)Oc1cc(-c2ccc3ncc(-c4cccs4)n3n2)ccc1F [compound 60]
Result block: > 8.00

Query block: Can you share its pIC50? I mean this compound: C[C@@H](Cn1cnnn1)Oc1cc(-c2ccc3ncc(-c4cccc(OCCN5CCC5)c4C#N)n3n2)ccc1F [compound 215]
Result block: > 8.00

Query block: Can you share its pIC50? I mean this compound: C[C@@H](Cn1cnnn1)Oc1cc(-c2ccn3ncc(-c4cccc(OCC5CC5)c4)c3n2)ccc1F [compound 54]
Result block: 7.00 to 8.00
